Origin of measurements: paper PMC11578313

# Protocol notes: In vivo pharmacokinetic study in male ICR mice (compound alone)
# Condition set: male, ICR, mouse, plasma, iv, 2 mg/kg, IV 2 mg/kg, individual mice 1-3; read-out: Cl_obs (converted)
Measurement name: clearance (mL/min/kg)
The figure you give is taken to be in mL/min/kg; do not add the unit.

Q: # clearance lookup, item Cc1cncc(C(=O)N2C[C@H]3CC[C@@H](C2)N3[C@H](c2cccc(F)c2)c2cn(CCc3ccsc3)nn2)c1 [Compound C5N17B]
A: 411

---

# Test system: SARS‐CoV‐2
# Protocol notes: microbe, parasite or virus in culture
# Type: cell-based
# Condition set: Severe acute respiratory syndrome coronavirus 2; Vero cells, with CP‐100356; read-out: EC50 ± SD, Vero cells, with P‐gp inhibitor
EC50 vs 1000 nM: less than gives Yes; not less than gives No.

Look over these answered cases.
CNC(=O)Cn1cc(C(c2cccc(F)c2)N2[C@@H]3CC[C@H]2CN(C(=O)c2cncc(C)c2)C3)nn1 (stereo partly drawn) ... No
Cc1cncc(C(=O)N2C[C@H]3CC[C@@H](C2)N3C(c2cccc(F)c2)c2cn(CCc3ccccc3)nn2)c1 (stereo partly drawn) ... No
Cc1cncc(C(=O)N2C[C@H]3CC[C@@H](C2)N3C(c2cccc(F)c2)c2cn(CCc3ccsc3)nn2)c1 (stereo partly drawn) ... Yes

Q: Please let me know if Cc1cncc(C(=O)N2C[C@H]3CC[C@@H](C2)N3C(c2cccc(F)c2)c2cn(CCN3C(=O)c4ccccc4C3=O)nn2)c1 (stereo partly drawn) shows EC50 below 1000 nM.
A: No

Q: Can you handle Cc1cncc(C(=O)N2C[C@H]3CC[C@@H](C2)N3C(c2cccc(F)c2)c2cn(Cc3ccc([N+](=O)[O-])cc3)nn2)c1 (stereo partly drawn) next?
A: No

Q: Subsequent entry: Cc1cncc(C(=O)N2C[C@H]3CC[C@@H](C2)N3C(c2cccc(F)c2)c2cn(Cc3cccc([N+](=O)[O-])c3)nn2)c1 (stereo partly drawn)
A: No
